Assay: Inhibition of pig kidney aldehyde reductase by spectrophotometry
Design: species or system Sus scrofa
measuredEndpoint: IC50

Below: 2 molecules and their reported IC50.
COc1cc(-c2oc3cc(O)cc(O)c3c(=O)c2O)ccc1O [ISORHAMNETIN]
> 95 µM
O=c1c(O)c(-c2ccc(O)c(O)c2)oc2cc(O)cc(O)c12 [QUERCETIN]
> 91 µM

# get_value(readout='IC50', item= COc1cc(-c2oc3cc(OS(=O)(=O)O)cc(O)c3c(=O)c2OS(=O)(=O)O)ccc1O )
49.5 µM

# get_value(readout='IC50', item= COc1cc(O)c2c(=O)c(OS(=O)(=O)O)c(-c3ccc(O)c(OC)c3)oc2c1 )
43.5 µM

# get_value(readout='IC50', item= O=c1c(OS(=O)(=O)O)c(-c2ccc(O)c(O)c2)oc2cc(O)cc(O)c12 )
55.6 µM

# get_value(readout='IC50', item= COc1cc(O)c2c(=O)c(O)c(-c3ccc(O)c(OC)c3)oc2c1 [RHAMNAZIN] )
> 91 µM

# get_value(readout='IC50', item= COc1ccc(-c2oc3cc(OS(=O)(=O)O)cc(O)c3c(=O)c2O[C@@H]2O[C@H](CO)[C@@H](O)[C@H](O)[C@H]2O)cc1O )
> 50 µM

# get_value(readout='IC50', item= COc1cc(-c2oc3cc(O)cc(O)c3c(=O)c2OS(=O)(=O)O)ccc1O [PERSICARIN] )
> 69 µM

# get_value(readout='IC50', item= O=c1c(O[C@@H]2O[C@H](CO)[C@@H](O)[C@H](O)[C@H]2O)c(-c2ccc(O)c(O)c2)oc2cc(O)cc(O)c12 [ISOQUERCETIN] )
> 64 µM

* * *

Experiment: Inhibition of bovine liver NADH oxidase
Set-up: species or system Bos taurus
pIC50: −log10 of the molar value.
Recorded pIC50, one value per entry.

Below: 5 compounds and their reported pIC50.
COc1cc(-c2oc3cc(O)cc(O)c3c(=O)c2O)ccc1O [ISORHAMNETIN]
4.05
COc1cc(-c2oc3cc(OS(=O)(=O)O)cc(O)c3c(=O)c2OS(=O)(=O)O)ccc1O
< 4.27
COc1ccc(-c2oc3cc(OS(=O)(=O)O)cc(O)c3c(=O)c2O[C@@H]2O[C@H](CO)[C@@H](O)[C@H](O)[C@H]2O)cc1O
< 4.30
COc1cc(-c2oc3cc(O)cc(O)c3c(=O)c2OS(=O)(=O)O)ccc1O [PERSICARIN]
< 4.16
O=c1c(OS(=O)(=O)O)c(-c2ccc(O)c(O)c2)oc2cc(O)cc(O)c12
< 4.15

# get_value(readout='pIC50', item= O=c1c(O[C@@H]2O[C@H](CO)[C@@H](O)[C@H](O)[C@H]2O)c(-c2ccc(O)c(O)c2)oc2cc(O)cc(O)c12 [ISOQUERCETIN] )
< 4.19

# get_value(readout='pIC50', item= COc1cc(O)c2c(=O)c(O)c(-c3ccc(O)c(OC)c3)oc2c1 [RHAMNAZIN] )
< 4.04

# get_value(readout='pIC50', item= COc1cc(O)c2c(=O)c(OS(=O)(=O)O)c(-c3ccc(O)c(OC)c3)oc2c1 )
< 4.17

# get_value(readout='pIC50', item= O=c1c(O)c(-c2ccc(O)c(O)c2)oc2cc(O)cc(O)c12 [QUERCETIN] )
4.19

* * *

Target: Aldo-keto reductase family 1 member B1 (Sus scrofa)
Recorded IC50, one value per entry.
// units = µM; emit number, no label

Below: 2 compounds and their reported IC50.
COc1ccc(-c2oc3cc(OS(=O)(=O)O)cc(O)c3c(=O)c2O[C@@H]2O[C@H](CO)[C@@H](O)[C@H](O)[C@H]2O)cc1O
5
O=c1c(O[C@@H]2O[C@H](CO)[C@@H](O)[C@H](O)[C@H]2O)c(-c2ccc(O)c(O)c2)oc2cc(O)cc(O)c12 [ISOQUERCETIN]
16

Continue with the next compound.
Record lookup: for Aldo-keto reductase family 1 member B1 (Sus scrofa), what IC50 belongs to O=c1c(O)c(-c2ccc(O)c(O)c2)oc2cc(O)cc(O)c12 [QUERCETIN] ?
50.1

Data credit: ChEMBL document CHEMBL1158227
